Hey, just so you know, these numbers are from the OligoGym collection.

- measurement_target: ZNF480
- assay_overview: pooled miR-30 sensor sort-seq; sequence = guide strand
- protocol_conditions: shRNA
y means recorded sensor-assay potency score (higher = more potent) is -0.7 or above; n means it is below -0.7.

>  <seq>
TTTCTGATGTCGTACAAGGAGC

>  <answer_label>
n

$$$$
>  <seq>
TTTCAACTTGATTACATCCATT

>  <answer_label>
n

$$$$
>  <seq>
TTCTCTAAGGTGTACTTTCTGT

>  <answer_label>
n

$$$$
>  <seq>
TTCATCTGGAAATAGCTCCAGT

>  <answer_label>
y

$$$$
>  <seq>
TTGATGTTTAGTAAGGCTGGAA

>  <answer_label>
y

$$$$

---

Measured sensor-assay potency score (higher = more potent), listed per entry for reference.
- measurement_target: CMAS
- assay_overview: pooled miR-30 sensor sort-seq; sequence = guide strand
- protocol_conditions: shRNA
parameter: sensor-assay potency score (higher = more potent)

>  <seq>
TACATTTGCAAATGTATCCAAC

>  <value_reported>
-0.636

$$$$
>  <seq>
TTTGAAACTTCAGAACTTCTTC

>  <value_reported>
0.8

$$$$
>  <seq>
TATATATATATCACAAACCAAA

>  <value_reported>
-1.7

$$$$
>  <seq>
TCATCTACAACTGCTAGCTTGT

>  <value_reported>
-0.405

$$$$
>  <seq>
TTTCACTCCATCGAAACTGATG

>  <value_reported>
-0.871

$$$$
>  <seq>
TTCTTTAATAAACTTATCCCAA

>  <value_reported>
-0.589

$$$$
>  <seq>
TTCATCTACAACTGCTAGCTTG

>  <value_reported>
-0.562

$$$$

---

- measurement_target: TIMM50
- assay_overview: pooled miR-30 sensor sort-seq; sequence = guide strand
- protocol_conditions: shRNA
parameter: sensor-assay potency score (higher = more potent)

>  <seq>
TGTCCATCCATGTATCTTGTGG

>  <measurement_target>
TIMM50

>  <value_reported>
-0.521

$$$$
>  <seq>
TGAAATATCCTTTACATGGTGT

>  <measurement_target>
TIMM50

>  <value_reported>
0.0469

$$$$
>  <seq>
TACATGGTGTCCATCCATGTAT

>  <measurement_target>
TIMM50

>  <value_reported>
-1

$$$$
>  <seq>
TTGCTTCTGACTAGTCTCCTGG

>  <measurement_target>
TIMM50

>  <value_reported>
-0.18

$$$$
>  <seq>
TAGACGACGCTCACAGTCCCAC

>  <measurement_target>
TIMM50

>  <value_reported>
-0.936

$$$$

---

- measurement_target: ZBTB39
- assay_overview: pooled miR-30 sensor sort-seq; sequence = guide strand
- protocol_conditions: shRNA
If the reported sensor-assay potency score (higher = more potent) equals or exceeds -0.5, assign Satisfied. If not, assign Not satisfied.

>  <seq>
TTAAACACAACACAGAACAGAA

>  <answer_label>
Not satisfied

$$$$
>  <seq>
AAGTCCACCACATAGGTCCTGG

>  <answer_label>
Not satisfied

$$$$
>  <seq>
TAAGCAGACACCAACATCCCTG

>  <answer_label>
Satisfied

$$$$
>  <seq>
TTAGTTTCACACATGTCGCAGG

>  <answer_label>
Satisfied

$$$$
>  <seq>
TTAGACATCTACTATTTGGGGA

>  <answer_label>
Satisfied

$$$$
>  <seq>
TAGAACTTTCTTGCACACCTGG

>  <answer_label>
Satisfied

$$$$
>  <seq>
TAAAGAAACATCAAAATCGAGT

>  <answer_label>
Not satisfied

$$$$

---

- measurement_target: PTPN7
- assay_overview: pooled miR-30 sensor sort-seq; sequence = guide strand
- protocol_conditions: shRNA
# if value of sensor-assay potency score (higher = more potent) reaches -0.7, tag YES; if it stays below, tag NO

>  <seq>
TCTTCTTCCAGTTGCTTGGGGC

>  <measurement_target>
PTPN7

>  <answer_label>
YES

$$$$
>  <seq>
TTGGCATTGATGTAATCTCCGT

>  <measurement_target>
PTPN7

>  <answer_label>
NO

$$$$
>  <seq>
TAGAACAGGAAACTGAAGCTCA

>  <measurement_target>
PTPN7

>  <answer_label>
YES

$$$$
>  <seq>
ATTGATGTAATCTCCGTCCTCC

>  <measurement_target>
PTPN7

>  <answer_label>
YES

$$$$
>  <seq>
TAGTGGACACATTTCTCCTTGC

>  <measurement_target>
PTPN7

>  <answer_label>
YES

$$$$
>  <seq>
TTGTCCTTACTGCTGCTGCTTC

>  <measurement_target>
PTPN7

>  <answer_label>
NO

$$$$
>  <seq>
TAGACAGACACGGCTCTGGGGA

>  <measurement_target>
PTPN7

>  <answer_label>
NO

$$$$
>  <seq>
TTCTCCTCGGGCTTTCAGCTGT

>  <measurement_target>
PTPN7

>  <answer_label>
NO

$$$$

---

- measurement_target: HLA-DRA
- assay_overview: pooled miR-30 sensor sort-seq; sequence = guide strand
- protocol_conditions: shRNA
parameter: sensor-assay potency score (higher = more potent)

>  <seq>
TTGTCTATGAAACAGATGAGGA

>  <value_reported>
-0.94

$$$$
>  <seq>
TCAAACATAAACTCGCCTGATT

>  <value_reported>
-0.205

$$$$
>  <seq>
TAAACAATAAGTACACAAGAGA

>  <value_reported>
-0.861

$$$$
>  <seq>
AGACTGTCTCTGACACTCCTGT

>  <value_reported>
-1.07

$$$$
>  <seq>
TTAGAGTACGGAGCAATCGAAG

>  <value_reported>
-1.52

$$$$
>  <seq>
TAAACTCGCCTGATTGGTCAGG

>  <value_reported>
-0.677

$$$$

---

- measurement_target: KIF21A
- assay_overview: pooled miR-30 sensor sort-seq; sequence = guide strand
- protocol_conditions: shRNA
Reported sensor-assay potency score (higher = more potent) values follow for various sequences
parameter: sensor-assay potency score (higher = more potent)

>  <seq>
TTGCAGAACAAGCATCTCCAAG

>  <value_reported>
-1.19

$$$$
>  <seq>
TTGAGCTGCTTGAAGTCTCTGC

>  <value_reported>
0.624

$$$$
>  <seq>
TTTTATATAACTATGAATCATA

>  <value_reported>
-0.753

$$$$
>  <seq>
TTGATTTGCTGACTAGCTCTGT

>  <value_reported>
0.32

$$$$
>  <seq>
TTGTTTGAGTCGACCTTCCAGT

>  <value_reported>
-0.666

$$$$
>  <seq>
TTTCATTTCCATCACATCCTGC

>  <value_reported>
0.0152

$$$$
>  <seq>
TAGTAGTCTTGTTAGCTTGGAA

>  <value_reported>
-0.0525

$$$$

---

The reader will find reported sensor-assay potency score (higher = more potent) values listed item by item below.
- measurement_target: ZNF135
- assay_overview: pooled miR-30 sensor sort-seq; sequence = guide strand
- protocol_conditions: shRNA
parameter: sensor-assay potency score (higher = more potent)

>  <seq>
TATTTCTTCAGAGATGCCTTGC

>  <value_reported>
0.235

$$$$
>  <seq>
TAACATAGCACTAATGGGCGTT

>  <value_reported>
0.0821

$$$$
>  <seq>
TTGCTTTAGAACTGACAGTTTG

>  <value_reported>
-1.45

$$$$
>  <seq>
TCAAACGTCACTTGCTCCGGGT

>  <value_reported>
-0.579

$$$$
>  <seq>
TGTTCGATAAGTGCTGAGCTGT

>  <value_reported>
-0.66

$$$$
>  <seq>
TAGAACTGACAGTTTGACTTTG

>  <value_reported>
-0.0496

$$$$
>  <seq>
TTAGAACTGACAGTTTGACTTT

>  <value_reported>
-0.0207

$$$$
>  <seq>
TTCTTCAGAGATGCCTTGCTTT

>  <value_reported>
-0.404

$$$$
>  <seq>
ATGAATATCAGAGTCAACCTGC

>  <value_reported>
0.469

$$$$
>  <seq>
TTTCTCATGTGTATGATTGGGT

>  <value_reported>
0.467

$$$$

---

- measurement_target: CCDC77
- assay_overview: pooled miR-30 sensor sort-seq; sequence = guide strand
- protocol_conditions: shRNA
parameter: sensor-assay potency score (higher = more potent)

>  <seq>
TTTCTTCTTACACTGCACCCTA

>  <value_reported>
-0.0389

$$$$
>  <seq>
TAATATATTCACTTTGAGCATG

>  <value_reported>
-0.91

$$$$
>  <seq>
TTTCGTTTGAGTCTCTAGCGCC

>  <value_reported>
-0.231

$$$$
>  <seq>
TTATCTTTTTCAAGCATCCATG

>  <value_reported>
-1.19

$$$$
>  <seq>
TTTGGTGCTCTCATAGAGCAGT

>  <value_reported>
-0.0472

$$$$
>  <seq>
TTTCTTGTCTTCTAGCTCCCTG

>  <value_reported>
-0.0804

$$$$
